test: clinical; settings: human, in vivo, 280 mg/m2, Observed Mean (Cmax)

{"COMPOUND": "CCc1c2c(nc3ccc(OC(=O)N4CCC(N5CCCCC5)CC4)cc13)-c1cc3c(c(=O)n1C2)COC(=O)[C@]3(O)CC [oral irinotecan, reference compound]", "MEASUREMENT UNIT": "ng/mL", "Cmax": 763}

* * *

assay: clinical; details: human, in vivo, po, AUC24 h, dose 320 mg/m^2 oral irinotecan + 15 mg HM30181A; N = 3

{"MOLECULE": "CCc1c2c(nc3ccc(OC(=O)N4CCC(N5CCCCC5)CC4)cc13)-c1cc3c(c(=O)n1C2)COC(=O)[C@]3(O)CC [oral irinotecan, reference compound]", "AUC(0-t) [ng·h/mL]": 11300}

* * *

assay: Study 2: pharmacokinetics of oral irinotecan and M1, 5-20 mg/m^2 per day for 10 days during a 21 day cycle; settings: human, in vivo, oral, 20 mg/m2, AUC24, Day 12; dose group 20 mg/m^2; mean
ENDPOINT NAME: AUC (ng·h/mL)

{"COMPOUND": "CCc1c2c(nc3ccc(OC(=O)N4CCC(N5CCCCC5)CC4)cc13)-c1cc3c(c(=O)n1C2)COC(=O)[C@]3(O)CC [oral irinotecan, reference compound]", "MEASUREMENT UNIT": "ng·h/mL", "MEASURED VALUE": 442}

* * *

test: clinical; conditions: human, in vivo, 20 mg/m2, AUC24
ENDPOINT NAME: AUC

{"COMPOUND": "CCc1c2c(nc3ccc(OC(=O)N4CCC(N5CCCCC5)CC4)cc13)-c1cc3c(c(=O)n1C2)COC(=O)[C@]3(O)CC [oral irinotecan, reference compound]", "ENDPOINT NAME": "AUC", "MEASURED VALUE": "277 ng·h/mL"}

* * *

assay: clinical; settings: human, in vivo, 5 mg/m2, Cmax

{"MOLECULE": "CCc1c2c(nc3ccc(OC(=O)N4CCC(N5CCCCC5)CC4)cc13)-c1cc3c(c(=O)n1C2)COC(=O)[C@]3(O)CC [oral irinotecan, reference compound]", "Cmax [ng/mL]": 6.52}

* * *

assay: clinical; settings: human, in vivo, 320 mg/m2, Observed Mean AUCinf
ENDPOINT NAME: AUC0-inf (ng·h/mL)

{"COMPOUND": "CCc1c2c(nc3ccc(OC(=O)N4CCC(N5CCCCC5)CC4)cc13)-c1cc3c(c(=O)n1C2)COC(=O)[C@]3(O)CC [oral irinotecan, reference compound]", "ENDPOINT NAME": "AUC0-inf", "MEASUREMENT UNIT": "ng·h/mL", "MEASURED VALUE": 14200}

* * *

experiment: clinical; settings: human, in vivo, 30 mg/m2, AUC24

{"COMPOUND": "CCc1c2c(nc3ccc(OC(=O)N4CCC(N5CCCCC5)CC4)cc13)-c1cc3c(c(=O)n1C2)COC(=O)[C@]3(O)CC [oral irinotecan, reference compound]", "MEASUREMENT UNIT": "ng·h/mL", "AUC": 736}

* * *

experiment: Study 2: pharmacokinetics of oral irinotecan and M1, 5-20 mg/m^2 per day for 10 days during a 21 day cycle; details: human, in vivo, oral, 5 mg/m2, AUC24, Day 12; dose group 5 mg/m^2; mean

{"COMPOUND": "CCc1c2c(nc3ccc(OC(=O)N4CCC(N5CCCCC5)CC4)cc13)-c1cc3c(c(=O)n1C2)COC(=O)[C@]3(O)CC [oral irinotecan, reference compound]", "MEASUREMENT UNIT": "ng·h/mL", "AUC": 95.1}
